Molecular target: SHV-1 β-lactamase (Klebsiella pneumoniae)
Sequence (P0AD64 whole entry, looked up): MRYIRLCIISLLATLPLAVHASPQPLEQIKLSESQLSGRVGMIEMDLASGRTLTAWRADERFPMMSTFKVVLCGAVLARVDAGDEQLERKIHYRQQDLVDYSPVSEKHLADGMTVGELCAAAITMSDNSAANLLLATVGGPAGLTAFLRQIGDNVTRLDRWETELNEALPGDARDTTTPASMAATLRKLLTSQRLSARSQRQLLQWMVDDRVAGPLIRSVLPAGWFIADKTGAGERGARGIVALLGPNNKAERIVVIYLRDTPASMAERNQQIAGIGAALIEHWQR
Test: Cell-free β-lactamase inhibition study (nitrocefin hydrolysis)
Assay type: biochemical
Conditions: SHV-1; 10 min pre-incubation at 37° C., nitrocefin substrate; read-out: IC50
READOUT_KIND: IC50 (nM)
Answers are plain numbers, in nM.

The examples below pair each entry with its known result.
MOLECULE	MEASUREMENT_TARGET	IC50, nM
C=CCC(C(=O)O)=C1O[C@@H]2CC(=O)N2C1C(=O)OCc1ccccc1 (stereo partly drawn) [Example 24]	SHV-1 β-lactamase (Klebsiella pneumoniae)	62.2
COC(=O)C1(C/C=C/c2ccccc2)C(=CC=O)O[C@@H]2CC(=O)N21 (single isomer, unassigned) [Example 14]	SHV-1 β-lactamase (Klebsiella pneumoniae)	85100
CCCC(C(=O)O)=C1O[C@@H]2CC(=O)N2C1C(=O)OC (stereo partly drawn) [Example 54]	SHV-1 β-lactamase (Klebsiella pneumoniae)	295
COC(=O)C(CCCc1ccccc1)=C1O[C@@H]2CC(=O)N2C1C(=O)OC (stereo partly drawn) [Example 57]	SHV-1 β-lactamase (Klebsiella pneumoniae)	22.6
O=C(O)C(CC=CCN(Cc1ccccc1)C(=O)OCc1ccccc1)=C1O[C@@H]2CC(=O)N2C1C(=O)OCc1ccccc1 (stereo partly drawn) [Example 58]	SHV-1 β-lactamase (Klebsiella pneumoniae)	0.6

Let's switch to this molecule now.
Look at this molecule and give its reported IC50. CC(C)(C)C(=O)OCOC(=O)C1C(=C(C=O)C/C=C/c2ccccc2)O[C@@H]2CC(=O)N12 (stereo partly drawn) [Example 18] 13.9
